Tested on: BDF1 mice, colon carcinoma 38 sc, T/C %
Method: NCI In Vivo Anticancer Drug Screen. Data for tumor model Colon Carcinoma 38 (subcutaneous) in B6D2F1 (BDF1) mice
Experimental setup: endpoint: median tumor weight (est.); dose: 800.0 mg/kg/injection; schedule: Q07DX002 (ip); vehicle: saline; higher = larger tumour
Results filed as inconclusive are left out.
Measured parameter: T/C

Previously resolved entries follow.
1) O=Cc1ccc(O)c(O)c1	88 % of control
2) N#C[C@H](OC1OC(COC2OC(CO)C(O)C(O)C2O)C(O)C(O)C1O)c1ccccc1 (some centres undefined)	87 % of control
3) Nc1cccc(=O)[nH]1	95 % of control
4) C[Si](C)(C)O/C=C1/CCOC1=O	78 % of control
5) NCCc1cc(O)c(O)c(O)c1	51 % of control

Incoming: Record request: T/C value, item NC(=S)N/N=C/c1ccc(O)cn1
Outgoing: 67 % of control

Incoming: Quick one: N=c1nc2n(cc1F)[C@@H]1O[C@H](CO)[C@@H](O)[C@@H]1O2
Outgoing: 102 % of control

Incoming: Then what about the compound NC(=O)c1c[se]c(C2OC(CO)C(O)C2O)n1 (centres undefined) ?
Outgoing: 90 % of control

Incoming: Can you handle CC(Cc1ccc(O)c(O)c1)C(C)Cc1ccc(O)c(O)c1 (centres undefined) next?
Outgoing: 90 % of control

###

System: BDF1 mice, colon carcinoma 38 sc, T/C %
Method: NCI In Vivo Anticancer Drug Screen. Data for tumor model Colon Carcinoma 38 (subcutaneous) in B6D2F1 (BDF1) mice
Experimental setup: endpoint: median tumor weight (est.); dose: 12.5 mg/kg/injection; schedule: Q07DX002 (ip); vehicle: saline with Tween-80; higher = larger tumour
Inconclusive results are not listed.
T/C values for the molecules below.

1. CN(C)CCOc1ccc2c(c1)C/C(=C/c1ncc([N+](=O)[O-])n1C)C2=O	76 % of control
2. CN=S(=O)(OCCCCCOS(=O)(=NC)c1ccccc1)c1ccccc1 (configuration not stated)	58 % of control
3. CCSC(=O)N1c2ccc(OC)cc2C=CC1C#N (configuration not stated)	70 % of control
4. Clc1ccc(CN2COc3c(ccc4cccnc34)C2)cc1Cl	180 % of control
5. C1=CCOCOC1	77 % of control
6. O=C(O)/C=C/C(=O)N1Cc2cc3ccccc3nc2C1	84 % of control
7. Cc1cnc(/C=N\NC(N)=S)c2cccc(N)c12	69 % of control
8. CC1(CO)C(O)CCC2(C)C1CCC1CC3CC12CCC3(O)CO (configuration not stated)	120 % of control
9. COc1ccc(OC)c(/C=C/c2ccnc3ccccc23)c1	152 % of control
10. COCCCNC1=C(C#N)C(=O)NC(c2cccc([N+](=O)[O-])c2)S1 (configuration not stated)	97 % of control

Incoming: So what's the measured T/C for this one? C[CH2][Sn]1([CH2]C)[O]OC(c2ccccc2)[O]1 (configuration not stated)
Outgoing: 195 % of control

Incoming: Record: N#Cc1nc(C#N)c(Sc2ccccc2)c(Sc2ccccc2)c1Sc1ccccc1
Outgoing: 30 % of control

###

System: BDF1 mice, colon carcinoma 38 sc, T/C %
Method: NCI In Vivo Anticancer Drug Screen. Data for tumor model Colon Carcinoma 38 (subcutaneous) in B6D2F1 (BDF1) mice
Experimental setup: endpoint: median tumor weight (est.); dose: 400.0 mg/kg/injection; schedule: Q07DX003 (ip); vehicle: Klucel (hydroxypropylcellulose) (HPC); higher = larger tumour
Inconclusive results are not listed.
Measured parameter: T/C

Example results:
1. OC(CBr)C(O)C(O)C(O)CBr (centres undefined)	7 % of control
2. CC1CN=C(c2ccc(NC(=O)c3ccc(C(=O)Nc4ccc(C5=NCC(C)N5)cc4)cc3)cc2)N1 (centres undefined)	63 % of control
3. C=C(NC(=O)C(=C)NC(=O)c1csc(C2=NC3c4csc(n4)C4NC(=O)c5csc(n5)C(C(C)(O)C(C)O)NC(=O)C5CSC(=N5)/C(=C/C)NC(=O)C(C(C)O)NC(=O)c5csc(n5)C3(CC2)NC(=O)C(C)NC(=O)C(=C)NC(=O)C(C)NC(=O)C(C(C)CC)NC2C=Cc3c(C(C)O)cc(nc3C2O)C(=O)OC4C)n1)C(N)=O (centres undefined)	119 % of control

Now let's try a different one.
Incoming: Please give the measured T/C for this molecule: ClCCCCCCCCCCc1ccccc1
Outgoing: 51 % of control

###

Tested on: BDF1 mice, colon carcinoma 38 sc, T/C %
Method: NCI In Vivo Anticancer Drug Screen. Data for tumor model Colon Carcinoma 38 (subcutaneous) in B6D2F1 (BDF1) mice
Experimental setup: endpoint: median tumor weight (est.); dose: 200.0 mg/kg/injection; schedule: Q07DX002 (ip); vehicle: Klucel (hydroxypropylcellulose) (HPC); higher = larger tumour
Inconclusive results are not listed. Where a SMILES comes first, the peptide text is derived from it. The star is where a group is joined. Trt = c1ccc(C(c2ccccc2)(c2ccccc2)*)cc1; Cbz = O=C(OCc1ccccc1)*; Bn = c1ccc(C*)cc1; βAla = NCCC(=O)O
Measured parameter: T/C

Below are worked cases with known answers.
1) CN(C)C(=O)SC1=C(c2c(Cl)cccc2Cl)C(=O)c2ccccc21	86 % of control
2) CCCCc1ccc(-n2c(C)c(COC(=O)NC)c(COC(=O)NC)c2C)cc1	60 % of control
3) COC(=O)C(CSC(c1ccccc1)(c1ccccc1)c1ccccc1)NC(=O)C(CSCc1ccccc1)NC(=O)CCNC(=O)OCc1ccccc1 (stereo not given) ({Cbz-βAla}-Cys(Bn)-Cys(Trt)-OMe; configuration not given here)	87 % of control
4) COc1ccc2c(c1)CCC(c1ccccc1)=C2c1ccc(OCCN2CCCC2)cc1	100 % of control
5) ClC1C(Cl)C(Cl)C(Cl)C(Cl)C1Cl (stereo not given)	113 % of control
6) CCN(CC)CCNC(=O)Cc1cccc2c(=O)cc(-c3ccccc3)oc12	96 % of control
7) CC(=O)[O][Pb]([O]C(C)=O)([c]1ccccc1)[c]1ccccc1	72 % of control
8) C=C1C(=O)OC2/C=C(\CO)C(OC(C)=O)CC(O)/C(C)=C/C(OC(=O)C(C)CC)C12 (stereo not given)	95 % of control

Incoming: Fill in the blank: the reported T/C of O=c1ccc2ccccc2o1 is ____.
Outgoing: 118 % of control

Incoming: Same thing, different molecule: COc1ccc(-c2cc(=O)c3cccc(CC(=O)O)c3o2)cc1OC
Outgoing: 82 % of control

Incoming: Please do the same for O=C(CC(=O)C(F)(F)F)c1csc2ccccc12 as well.
Outgoing: 62 % of control

Incoming: Same question for CN(C)CCCOC(=O)Cc1cccc2c(=O)cc(-c3ccccc3)oc12 please.
Outgoing: 81 % of control

Incoming: Also O=C(O)CSc1c(Cl)c(=O)oc2ccc(Cl)cc12 ?
Outgoing: 120 % of control

Incoming: Now the same for CCNC(=O)[B-][N+](C)(C)C
Outgoing: 67 % of control

Incoming: Next record, please: Cc1c(-c2ccc(C3CCCCC3)cc2)nc2ccc(F)cc2c1C(=O)O
Outgoing: 116 % of control

Incoming: Moving on to O=C(O)/C=C/C(=O)Nc1ccc(Cl)c(Cl)c1
Outgoing: 67 % of control

###

Tested on: BDF1 mice, colon carcinoma 38 sc, T/C %
Method: NCI In Vivo Anticancer Drug Screen. Data for tumor model Colon Carcinoma 38 (subcutaneous) in B6D2F1 (BDF1) mice
Experimental setup: endpoint: median tumor weight (est.); dose: 100.0 mg/kg/injection; schedule: Q07DX002 (ip); vehicle: distilled water + Tween-80; higher = larger tumour
Records with an inconclusive call do not appear.
Measured parameter: T/C

Some entries whose results are on file:
1) NC(=S)N/N=C\c1ncccc1OCc1cccc(N)c1	78 % of control
2) Nc1cc(Cl)c2[nH]cnc2n1	76 % of control
3) Nc1nc(/C=C(/O)c2ccccc2)c2ncn(C3OC(CO)C(O)C3O)c2n1 (centres undefined)	110 % of control

Incoming: Query: T/C; subject: CNC(=O)OCc1c(COC(=O)NC)c(-c2ccc(Cl)c(Cl)c2)n2c1Cc1ccccc1C2
Outgoing: 81 % of control

###

Test system: BDF1 mice, colon carcinoma 38 sc, T/C %
Method: NCI In Vivo Anticancer Drug Screen. Data for tumor model Colon Carcinoma 38 (subcutaneous) in B6D2F1 (BDF1) mice
Experimental setup: endpoint: median tumor weight (est.); dose: 100.0 mg/kg/injection; schedule: Q07DX002 (ip); vehicle: Klucel (hydroxypropylcellulose) (HPC); higher = larger tumour
Inconclusive results are not listed. Where a SMILES comes first, the peptide text is derived from it. The star is where a group is joined. Trt = c1ccc(C(c2ccccc2)(c2ccccc2)*)cc1; Cbz = O=C(OCc1ccccc1)*; Bn = c1ccc(C*)cc1; βAla = NCCC(=O)O
Measured parameter: T/C

Solved cases below.
1) O=c1ccc2ccccc2o1	118 % of control
2) COC(=O)C(CSC(c1ccccc1)(c1ccccc1)c1ccccc1)NC(=O)C(CSCc1ccccc1)NC(=O)CCNC(=O)OCc1ccccc1 (centres undefined) ({Cbz-βAla}-Cys(Bn)-Cys(Trt)-OMe; configuration not given here)	96 % of control
3) CCc1c(CC(=O)O)c2cc(C)ccc2n1Cc1ccc(Cl)cc1	159 % of control
4) C=C(Cl)C(=NC(C)(C)C)Nc1ccccc1C	113 % of control

Incoming: What measured T/C goes with C[Si](C)(C)OSc1ccccc1[N+](=O)[O-] ?
Outgoing: 110 % of control

Incoming: // repeat for COc1cc(C)c(C2NC(=O)c3ccccc3N2)cc1C (centres undefined) and report
Outgoing: 78 % of control

Incoming: What about CC(C)CC(=O)NC(C(=O)NC(C(=O)NC(CC(C)C)C(O)CC(=O)NC(C)C(=O)NC(CC(C)C)C(O)CC(=O)O)C(C)C)C(C)C (centres undefined) ?
Outgoing: 95 % of control

Incoming: Further, for O=c1[nH]cnc2n[nH]nc12 ?
Outgoing: 87 % of control

Incoming: How about C[C@]12C=CC(=O)C=C1CC[C@@H]1[C@@H]2C(=O)C[C@@]2(C)[C@H]1CC[C@]2(O)C(=O)CO ?
Outgoing: 110 % of control
